system: RAF dimers in HCT-116 cells; assay: HCT-116 AlphaLISA SureFire pERK1/2 cellular assay (dimer); format: cell-based; details: Homo sapiens, HCT-116; HCT116 cells, dimer, 1 hr; read-out: pERK HCT116 dimer (1 hr) plC50 (converted)
MEASUREMENT KIND: IC50 (nM)
Could you give me the number in nM? Just the number is fine.

• CCn1nc(C)cc1-c1c[nH]c(C2COc3ccc(Oc4ccnc5c4CCC(=O)N5)cc3C2)n1 (stereo not drawn) [Compound 124] = 269
• CC(=O)Nc1cc(Oc2ccc3c(c2)CC(c2nc(-c4ccccc4)c[nH]2)CO3)ccn1 (stereo not drawn) [Compound 156] = 52.5
• COc1ccsc1-c1c[nH]c(C2COc3ccc(Oc4ccnc5c4CCC(=O)N5)cc3C2)n1 (stereo not drawn) [Compound 123] = 58.9
• Cc1cc(-c2c[nH]c(C3COc4ccc(Oc5ccnc6c5CCC(=O)N6)cc4C3)n2)ccn1 (stereo not drawn) [Compound 117] = 110

Notebook: pull reported IC50 for RAF dimers in HCT-116 cells, entry CCc1cc(-c2c[nH]c(C3COc4ccc(Oc5ccnc6c5CCC(=O)N6)cc4C3)n2)n(C)n1 (stereo not drawn) [Compound 111]
107

Notebook: pull reported IC50 for RAF dimers in HCT-116 cells, entry CCc1cc(-c2c[nH]c(C3COc4ccc(Oc5ccnc6c5CCC(=O)N6)cc4C3)n2)ccn1 (stereo not drawn) [Compound 118]
148

Notebook: pull reported IC50 for RAF dimers in HCT-116 cells, entry Cn1ncc2ccc(-c3c[nH]c(C4COc5ccc(Oc6ccnc7c6CCC(=O)N7)cc5C4)n3)cc21 (stereo not drawn) [Compound 130]
166

Notebook: pull reported IC50 for RAF dimers in HCT-116 cells, entry Cn1cc(-c2c[nH]c(C3COc4ccc(Oc5ccnc6c5CCC(=O)N6)cc4C3)n2)cn1 (stereo not drawn) [Compound 108]
389

Notebook: pull reported IC50 for RAF dimers in HCT-116 cells, entry Cn1nc(C2CC2)cc1-c1c[nH]c(C2COc3ccc(Oc4ccnc5c4CCC(=O)N5)cc3C2)n1 (stereo not drawn) [Compound 125]
138

Notebook: pull reported IC50 for RAF dimers in HCT-116 cells, entry O=C1CCc2c(Oc3ccc4c(c3)CN(c3nc5cc(C(F)(F)F)ccc5[nH]3)CC4)ccnc2N1 [Compound 160]
347

Notebook: pull reported IC50 for RAF dimers in HCT-116 cells, entry O=C(CN1CCOCC1)Nc1cc(Oc2ccc3c(c2)CC(c2nc(-c4ccccc4)c[nH]2)CO3)ccn1 (stereo not drawn) [Compound 149]
363

* * *

# hPPB (% free) per record follows
assay: Plasma protein binding assay, human plasma (hPPB); format: in vitro ADME; conditions: 5 μM, equilibrium dialysis 4 hours 37° C.

- O=C1CCc2c(Oc3ccc4c(c3)CC(c3nc(-c5ccccc5F)c[nH]3)CO4)ccnc2N1 (stereo not shown): 0.2 % free

Given Cc1cccc(-c2c[nH]c(C3COc4ccc(Oc5ccnc6c5CCC(=O)N6)cc4C3)n2)c1 (stereo not shown) , state its recorded hPPB (% free).
0.1 % free

Given COc1cccc(-c2c[nH]c(C3COc4ccc(Oc5ccnc6c5CCC(=O)N6)cc4C3)n2)c1 (stereo not shown) , state its recorded hPPB (% free).
0.7 % free

Given Cc1cc(C(F)(F)F)cc2nc(C3COc4ccc(Oc5ccnc6c5CCC(=O)N6)cc4C3)[nH]c12 (stereo not shown) , state its recorded hPPB (% free).
<0.1 % free

Given CN1CCN(Cc2cc(C(F)(F)F)c3nc(C4COc5ccc(Oc6ccnc7c6CCC(=O)N7)cc5C4)[nH]c3c2)CC1 (stereo not shown) , state its recorded hPPB (% free).
0.1 % free

Given Cc1ccc(-c2c[nH]c(C3COc4ccc(Oc5ccnc6c5CCC(=O)N6)cc4C3)n2)cc1 (stereo not shown) , state its recorded hPPB (% free).
0.6 % free

Given CN(C)Cc1cc(C(F)(F)F)c2nc(C3COc4ccc(Oc5ccnc6c5CCC(=O)N6)cc4C3)[nH]c2c1 (stereo not shown) , state its recorded hPPB (% free).
0.7 % free

* * *

assay: Microsomal stability assay, mouse liver microsomes (MLM); format: in vitro ADME; settings: 0.5 mg/mL protein, 1 μM substrate
# log10(microsomal CLint at 1 μM) per record follows
The base-10 logarithm of microsomal CLint at 1 μM, taken with microsomal CLint at 1 μM in µL/min/mg, is what appears here.

- CN(C)Cc1cc(C(F)(F)F)cc2nc(C3COc4ccc(Oc5ccnc6c5CCC(=O)N6)cc4C3)[nH]c12 (stereo not drawn) [Compound 33]: 1.57
- COc1ccccc1-c1c[nH]c(C2COc3ccc(Oc4ccnc5c4CCC(=O)N5)cc3C2)n1 (stereo not drawn) [Compound 1]: 2.04
- O=C1CCc2c(Oc3ccc4c(c3)CN(C(=O)Nc3cccc(C(F)(F)F)c3)CC4)ccnc2N1 [Compound 50]: 1.90
- O=C1CCc2c(Oc3ccc4c(c3)CC(c3nc5cc(C(F)(F)F)ccc5[nH]3)CO4)ccnc2N1 (stereo not drawn) [Compound 22]: 1.40
- COc1ncc(-c2c[nH]c(C3COc4ccc(Oc5ccnc6c5CCC(=O)N6)cc4C3)n2)c(OC)n1 (stereo not drawn) [Compound 18]: 1.52

Given O=C1CCc2c(Oc3ccc4c(c3)CC(c3nc5cc(Cl)ccc5[nH]3)CO4)ccnc2N1 (stereo not drawn) [Compound 25] , state its recorded log10(microsomal CLint at 1 μM).
1.69

Given O=C1CCc2c(Oc3ccc4c(c3)CC(c3cc(-c5ccccc5Cl)n[nH]3)CO4)ccnc2N1 (stereo not drawn) [Compound 36] , state its recorded log10(microsomal CLint at 1 μM).
1.26

Given O=C1CCc2c(Oc3ccc4c(c3)CC(c3nc(-c5ccccc5C(F)(F)F)c[nH]3)CO4)ccnc2N1 (stereo not drawn) [Compound 4] , state its recorded log10(microsomal CLint at 1 μM).
2.08

Given O=C(Nc1cc(Oc2ccc3c(c2)CC(c2nc(-c4ccccc4)c[nH]2)CO3)ccn1)C1CC1 (stereo not drawn) [Compound 45] , state its recorded log10(microsomal CLint at 1 μM).
2.44

Given O=C1CCc2c(Oc3ccc4c(c3)CN(C(=O)Nc3ccccc3)CC4)ccnc2N1 [Compound 46] , state its recorded log10(microsomal CLint at 1 μM).
1.66

Given COc1cccc(-c2cc(C3COc4ccc(Oc5ccnc6c5CCC(=O)N6)cc4C3)[nH]n2)c1 (stereo not drawn) [Compound 41] , state its recorded log10(microsomal CLint at 1 μM).
1.66

Given Cc1cc(C(F)(F)F)cc2nc(C3COc4ccc(Oc5ccnc6c5CCC(=O)N6)cc4C3)[nH]c12 (stereo not drawn) [Compound 31] , state its recorded log10(microsomal CLint at 1 μM).
1.41

Given O=C1CCc2c(Oc3ccc4c(c3)CC(c3nc(-c5cc(F)ccc5F)c[nH]3)CO4)ccnc2N1 (stereo not drawn) [Compound 5] , state its recorded log10(microsomal CLint at 1 μM).
1.45

Given O=C1CCc2c(Oc3ccc4c(c3)CC(c3nc(-c5ccc(C(F)(F)F)cc5)c[nH]3)CO4)ccnc2N1 (stereo not drawn) [Compound 20] , state its recorded log10(microsomal CLint at 1 μM).
0.48

Given CN(C)c1ccc2[nH]c(C3COc4ccc(Oc5ccnc6c5CCC(=O)N6)cc4C3)nc2c1 (stereo not drawn) [Compound 26] , state its recorded log10(microsomal CLint at 1 μM).
1.95

* * *

test: Microsomal stability assay, human liver microsomes (HLM); type: in vitro ADME; details: 0.5 mg/mL protein, 1 μM substrate
microsomal CLint at 1 μM vs 90 µL/min/mg: less than gives yes (1); not less than gives no (0).

Known results for compounds:
• Cc1ccccc1-c1c[nH]c(C2COc3ccc(Oc4ccnc5c4CCC(=O)N5)cc3C2)n1 (stereo not shown) = no (0)
• Cc1cc2nc(C3COc4ccc(Oc5ccnc6c5CCC(=O)N6)cc4C3)[nH]c2cc1C (stereo not shown) = no (0)
• O=C1CCc2c(Oc3ccc4c(c3)CN(C(=O)Nc3ccccc3)CC4)ccnc2N1 = yes (1)
• CN(C)c1ccc2[nH]c(C3COc4ccc(Oc5ccnc6c5CCC(=O)N6)cc4C3)nc2c1 (stereo not shown) = yes (1)
• O=C(Nc1cc(Oc2ccc3c(c2)CC(c2nc(-c4ccccc4)c[nH]2)CO3)ccn1)C1CC1 (stereo not shown) = yes (1)

Consider the compound O=C1CCc2c(Oc3ccc4c(c3)CN(C(=O)Nc3ccccc3C(F)(F)F)CC4)ccnc2N1 . Is its microsomal CLint at 1 μM strictly less than 90 µL/min/mg?
yes (1)

* * *

# mPPB (% free) per record follows
assay: Plasma protein binding assay, mouse plasma (mPPB); assay type: in vitro ADME; details: 5 μM, equilibrium dialysis 4 hours 37° C.
Could you give me the number in % free? Just the number is fine.

* COc1cc(-c2c[nH]c(C3COc4ccc(Oc5ccnc6c5CCC(=O)N6)cc4C3)n2)ccn1 (stereo not shown) | 1.5

Given Cc1cccc(-c2c[nH]c(C3COc4ccc(Oc5ccnc6c5CCC(=O)N6)cc4C3)n2)c1 (stereo not shown) , state its recorded mPPB (% free).
0.5

Given O=C1CCc2c(Oc3ccc4c(c3)CC(c3nc(-c5ccccc5C(F)(F)F)c[nH]3)CO4)ccnc2N1 (stereo not shown) , state its recorded mPPB (% free).
0.5

Given COc1cccc(-c2cc(C3COc4ccc(Oc5ccnc6c5CCC(=O)N6)cc4C3)[nH]n2)c1 (stereo not shown) , state its recorded mPPB (% free).
1.2

Given O=C1CCc2c(Oc3ccc4c(c3)CN(C(=O)Nc3cccc(C(F)(F)F)c3)CC4)ccnc2N1 , state its recorded mPPB (% free).
1.6
